All figures here come from paper PMC8809517.

Record form. Attribute: Kd. Fill in for each entry.
Biological target: T1, GFP-9S library array, motif 4 ND N98C;D124R (synthetic construct, N98C;D124R)
T1 chain: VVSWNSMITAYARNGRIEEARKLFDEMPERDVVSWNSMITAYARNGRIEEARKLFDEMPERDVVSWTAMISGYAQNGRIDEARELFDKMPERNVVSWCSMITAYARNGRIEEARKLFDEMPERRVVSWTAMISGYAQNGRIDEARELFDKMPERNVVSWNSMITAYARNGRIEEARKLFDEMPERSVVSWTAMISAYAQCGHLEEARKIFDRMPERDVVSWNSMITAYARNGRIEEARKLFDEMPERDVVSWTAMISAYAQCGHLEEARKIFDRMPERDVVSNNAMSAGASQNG
Assay: high-throughput RNA pulldown from lysate on Ni-NTA beads; HRP: 50 mM Tris pH 8, 150 mM NaCl, 1 mM beta-mercaptoethanol, 50 ug/ml BSA, 3 ug/ml yeast RNA, 0.5% heparin; ITC and FP: Tris pH 8, 200 mM KCl, 5% glycerol; MST: 50 mM Tris pH 8, 200 mM NaCl, 1 mM DTT, BSA, heparin, 0.05% Tween 20
Settings: tags: N-terminal His-eGFP; label: 5' Cy5
One number for each entry, in nM.

>>> reported_value("AUUACACGUGA (ssRNA) [Cy5-rpoA]")
160

In the following, a different binder is considered.
INPUT: Form field: reported Kd of AUUAGACGUGA (ssRNA) [Cy5-rpoA-G]
OUTPUT: 54.9
